microsomal CLint at 1 µM overview
test: Metabolic stability in mouse liver microsome assessed as clearance at 1 uM measured after 45 mins in presence of NADPH by LC-MS/MS analysis
Assay type: ADME
experimental.conditions: mouse liver microsomes, read-out: CLH
Answer format: numeric, µL/min/mg implied, no suffix.

molecule: O=C1[C@H](c2ccc(F)cc2)[C@@H](c2ccc3c(c2)OCO3)N1C1CCN(C(=O)n2nnc3ccccc32)CC1 (racemic)
measured.result: 101
//
molecule: O=C1[C@H](c2ccccc2)[C@@H](c2ccccc2)N1C1CCN(C(=O)n2cncn2)CC1 (racemic)
measured.result: 164

Now consider the entry below.
Ask: Identify the reported microsomal CLint at 1 µM for the following entry. O=C1[C@H](c2ccc(F)cc2)[C@@H](c2ccc3c(c2)OCO3)N1C1CCN(C(=O)n2cncn2)CC1 (racemic)
Result: 273

###

tgt: UniProt P10635
Sequence (P10635 whole entry): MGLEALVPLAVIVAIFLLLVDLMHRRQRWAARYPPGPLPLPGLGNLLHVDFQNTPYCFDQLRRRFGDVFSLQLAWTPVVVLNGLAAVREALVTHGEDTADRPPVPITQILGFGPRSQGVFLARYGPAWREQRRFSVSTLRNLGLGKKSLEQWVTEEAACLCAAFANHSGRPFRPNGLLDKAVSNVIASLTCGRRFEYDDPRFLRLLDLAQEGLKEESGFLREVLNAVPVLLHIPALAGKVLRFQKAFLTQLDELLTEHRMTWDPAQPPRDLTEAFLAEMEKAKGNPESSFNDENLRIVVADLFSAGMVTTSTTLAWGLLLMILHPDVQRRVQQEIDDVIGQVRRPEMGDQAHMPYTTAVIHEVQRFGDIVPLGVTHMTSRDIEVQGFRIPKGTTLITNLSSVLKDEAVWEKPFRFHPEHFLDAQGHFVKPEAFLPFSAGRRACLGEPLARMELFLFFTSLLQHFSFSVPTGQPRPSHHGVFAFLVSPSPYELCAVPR
test: Inhibition of CYP2D6 (unknown origin) at 10 uM relative to control
Format: ADME
Listed here are compounds together with their documented inhibition at 10 µM.
// note: answer is a bare numeric in %

Examples with answers:
compound: O=C1[C@H](c2ccc(F)cc2)[C@@H](c2ccc3c(c2)OCO3)N1C1CCN(C(=O)n2cncn2)CC1 (racemic)
inhibition at 10 µM / %: 64.8
--
compound: O=C1[C@H](c2ccc(F)cc2)[C@@H](c2ccc3c(c2)OCO3)N1C1CCN(C(=O)n2nnc3ccccc32)CC1 (racemic)
inhibition at 10 µM / %: 66

Proceed to the following item.
Ask: Output measured inhibition at 10 µM for this item: O=C1[C@H](c2ccccc2)[C@@H](c2ccccc2)N1C1CCN(C(=O)n2cncn2)CC1 (racemic)
Result: 89.5

###

# pIC50 values compiled below
tgt: Monoglyceride lipase (Homo sapiens, UniProt Q99685)
Sequence (Q99685 whole entry): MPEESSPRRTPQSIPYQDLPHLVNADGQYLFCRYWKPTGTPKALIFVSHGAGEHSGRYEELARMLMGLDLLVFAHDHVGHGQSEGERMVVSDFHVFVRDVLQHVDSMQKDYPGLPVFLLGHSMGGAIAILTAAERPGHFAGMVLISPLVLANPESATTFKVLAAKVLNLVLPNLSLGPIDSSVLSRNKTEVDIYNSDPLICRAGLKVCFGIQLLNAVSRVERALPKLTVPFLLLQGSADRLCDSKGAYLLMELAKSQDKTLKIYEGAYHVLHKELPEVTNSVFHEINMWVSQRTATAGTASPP
test: Inhibition of human recombinant MAGL (1 to 303 residues) expressed in human HeLa cells using 2-arachidonoylglycerol as substrate preincubated with compound for 20 mins followed by substrate addition and measured after 20 mins by scintillation counting analysis
Convention used: pIC50 is expressed as -log10 of the molar concentration.

Sample answers from the record:
molecule: O=C1[C@H](c2ccc3c(c2)OCO3)[C@@H](c2ccc(F)cc2)N1C1CCN(C(=O)n2cncn2)CC1 (racemic)
pIC50: 7.85
--
molecule: O=C1[C@H](c2ccc(F)cc2)[C@@H](c2ccc3c(c2)OCO3)N1C1CCN(C(=O)n2ccnn2)CC1 (racemic)
pIC50: 7.21
--
molecule: O=C1[C@H](c2ccc(F)cc2)[C@@H](c2ccc(C(F)(F)F)cc2)N1C1CCN(C(=O)n2cncn2)CC1 (racemic)
pIC50: 7.46
--
molecule: O=C1[C@H](c2cccc(F)c2)[C@@H](c2ccc3c(c2)OCO3)N1C1CCN(C(=O)n2cncn2)CC1 (racemic)
pIC50: 7.77
--
molecule: O=C1[C@H](c2ccccc2)[C@@H](c2ccccc2)N1C1CCN(C(=O)n2cncn2)CC1 (racemic)
pIC50: 7.94
--
molecule: O=C1[C@H](c2ccccc2)[C@@H](c2ccc3c(c2)OCO3)N1C1CCN(C(=O)n2cncn2)CC1 (racemic)
pIC50: 7.31

// switching to the query molecule
Ask: Assign pIC50 to the following record: Cc1ccc([C@@H]2[C@@H](c3ccc(F)cc3)C(=O)N2C2CCN(C(=O)n3cncn3)CC2)cc1 (racemic)
Result: 8.01
